target: Luciferin 4-monooxygenase (Photinus pyralis); experiment: qHTS profiling assay for firefly luciferase inhibitor/activator using purifed enzyme and Km concentrations of substrates (counterscreen for miR-21 project); conditions: purified FLuc, luminescence inhibition; series mostly up to 57.5 µM; note: nearly all actives have a fitted effect of over 55% in size
Among all 360,000 compounds or so, about 25,000 (6.9%) were called active. Inconclusive results (about 9%) are left out. Calls come from the whole dose curve; as a rule, active = well fitted inhibition curve with a large enough effect; inconclusive = small, poorly fitted or top-dose-only effect; inactive = flat fitted curve, though single readings scatter. The sample holds actives, similar compounds and a random draw of the others, so the mix is not that of the screen.
Possible outcomes: active, inactive

> print(dat)
                           smiles.structure  class.name
1  O=C(CCNC(=O)c1ccc(Br)cc1)Nc1cccc(S(=O)(=O)N2CCCCC2)c1    inactive
2    O=c1[nH]c(CCl)nc2cc(-c3ccc(Cl)cc3)sc12      active
3     CC1CCN(C(=O)COC(=O)CCC(=O)c2cccs2)CC1    inactive
4  CCc1ccc(NC(=O)CCS(=O)(=O)c2cc3c(cc2Cl)NC(=O)CO3)cc1    inactive
5           CC(=O)Cn1ncc(N2CCOCC2)c(Br)c1=O    inactive
6  COc1ccc(NC(=O)CCC(=O)Nc2cc(OC)c(NC(=O)c3ccco3)cc2OC)c(OC)c1    inactive
7                 CCc1nnc(NC(=O)Cc2cccs2)s1    inactive
8  Cc1cc(C)c(NC(=O)c2oc3ccccc3c2COc2ccccc2)c(C)c1    inactive
9  CCOC(=O)CSc1nnc(CNc2nc(-c3ccccc3)cs2)n1C    inactive

====

Biological target: Luciferin 4-monooxygenase (Photinus pyralis)
Test: qHTS profiling assay for firefly luciferase inhibitor/activator using purifed enzyme and Km concentrations of substrates (counterscreen for miR-21 project); note: nearly all actives have a fitted effect of over 55% in size
Conditions: purified FLuc, luminescence inhibition; series mostly up to 57.5 µM
Text: MLPCN Grant: 1 R21 NS059478-01 (miR-21 grant) Assay Provider: NCGC NCGC Assay Overview: Firefly (Photinus pyralis) luciferase is one of the most commonly used transcriptional reporters for a number of reasons. […] Although light produced in a bioluminescence reaction is of lower intensity than that produced during fluorescence emission, this is offset by little to no background light inherent to luminescent assays. […]
The campaign covered roughly 360,000 compounds. About 25,000 (6.9%) were called active. Not shown: some 9% with an inconclusive outcome. Calls come from the whole dose curve; as a rule, active = well fitted inhibition curve with a large enough effect; inconclusive = small, poorly fitted or top-dose-only effect; inactive = flat fitted curve, though single readings scatter. Many of the other results were omitted from the sample, so actives are more common in it than they were.
Possible outcomes: active, inactive

> print(dat)
                                    compound                               target.desc  class.name
 1  CCOC(=O)c1ccccc1NC(=O)c1sc2nc(-c3ccc(F)cc3)cn2c1C  Luciferin 4-monooxygenase (Photinus pyralis)    inactive
 2  O=C(COC(=O)Cc1c[nH]c2ccccc12)NCCc1ccccc1  Luciferin 4-monooxygenase (Photinus pyralis)    inactive
 3  COCCCNC(=O)c1c(NC(=O)c2cc(=O)c3cc(C)c(C)cc3o2)sc2c1CCCC2  Luciferin 4-monooxygenase (Photinus pyralis)    inactive
 4  CCOc1ccc(NC(=O)CN(C)C(=O)Cc2sc(C)nc2-c2ccc(F)cc2)cc1OCC  Luciferin 4-monooxygenase (Photinus pyralis)    inactive
 5         O=C(NCCc1ccc(F)cc1)c1ccc2nccnc2c1  Luciferin 4-monooxygenase (Photinus pyralis)      active
 6    O=S(=O)(NCCc1csc(-c2ccccc2)n1)c1cccnc1  Luciferin 4-monooxygenase (Photinus pyralis)    inactive
 7  Cc1nc(Nc2ccc3c(c2)OCCO3)c2nnn(Cc3ccccc3Cl)c2n1  Luciferin 4-monooxygenase (Photinus pyralis)      active
 8  COc1ccc2c(c1)C(NS(=O)(=O)OCC(Cl)(Cl)Cl)CCC2 (stereo not given)  Luciferin 4-monooxygenase (Photinus pyralis)    inactive
 9  Cc1cnc(CN(C)C(=O)C2CCC(=O)N(CCc3cccc(F)c3)C2)[nH]1 (stereo not given)  Luciferin 4-monooxygenase (Photinus pyralis)    inactive
10  O=C1CN(C(=O)Nc2ccccc2C(F)(F)F)C(c2ccccc2)c2c(sc3c2CCCC3)N1 (stereo not given)  Luciferin 4-monooxygenase (Photinus pyralis)    inactive
11  COc1cccc(CNC(=O)Cc2csc(Nc3nc(=S)[nH]c4ccccc34)n2)c1  Luciferin 4-monooxygenase (Photinus pyralis)    inactive
12  COc1ccc(CCC(=O)NCCc2csc(-c3ccc(Cl)cc3)n2)cc1  Luciferin 4-monooxygenase (Photinus pyralis)    inactive
13  CCCCn1c(SCc2ncc(-c3ccccc3)o2)nc2cc(S(N)(=O)=O)ccc21  Luciferin 4-monooxygenase (Photinus pyralis)    inactive
14        Cc1nccn1CC(=O)N/N=C/c1ccc(O)c(O)c1  Luciferin 4-monooxygenase (Photinus pyralis)    inactive
15  COc1ccc(F)cc1C(=O)COC(=O)c1n[nH]c(=O)c2ccccc12  Luciferin 4-monooxygenase (Photinus pyralis)    inactive

====

target: Luciferin 4-monooxygenase (Photinus pyralis) (UniProt P08659); assay: qHTS profiling assay for firefly luciferase inhibitor/activator using purifed enzyme and Km concentrations of substrates (counterscreen for miR-21 project); conditions: purified FLuc, luminescence inhibition; series mostly up to 57.5 µM; note: nearly all actives have a fitted effect of over 55% in size
Sequence (P08659 whole entry, looked up): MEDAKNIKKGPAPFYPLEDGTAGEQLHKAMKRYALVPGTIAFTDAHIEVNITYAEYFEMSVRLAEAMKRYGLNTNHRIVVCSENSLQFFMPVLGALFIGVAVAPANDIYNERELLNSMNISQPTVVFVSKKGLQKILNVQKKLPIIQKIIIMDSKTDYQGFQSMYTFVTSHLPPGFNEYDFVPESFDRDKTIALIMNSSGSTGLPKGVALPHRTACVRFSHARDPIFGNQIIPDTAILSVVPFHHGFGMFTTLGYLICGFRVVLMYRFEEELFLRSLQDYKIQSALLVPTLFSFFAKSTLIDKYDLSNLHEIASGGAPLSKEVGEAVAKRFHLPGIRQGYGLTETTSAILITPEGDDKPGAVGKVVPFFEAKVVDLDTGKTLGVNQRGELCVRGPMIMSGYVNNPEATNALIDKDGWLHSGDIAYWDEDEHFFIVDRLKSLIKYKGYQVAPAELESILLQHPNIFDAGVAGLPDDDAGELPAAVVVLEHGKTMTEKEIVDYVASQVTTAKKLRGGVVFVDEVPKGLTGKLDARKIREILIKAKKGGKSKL
Hit rate of the full screen: of about 360,000 compounds, about 25,000 (6.9%) were called active. Not shown: some 9% with an inconclusive outcome. Calls come from the whole dose curve; as a rule, active = well fitted inhibition curve with a large enough effect; inconclusive = small, poorly fitted or top-dose-only effect; inactive = flat fitted curve, though single readings scatter. The list comes from a sample in which actives are over-represented; it also holds close analogues and randomly drawn compounds.
Possible outcomes: class 1 for active, class 0 for inactive

> print(dat)
                                   compound                               target.desc  class.name
1  CC(=O)Nc1ccc(S(=O)(=O)Nc2cccc(NC(=O)C(C)(C)C)c2)cc1  Luciferin 4-monooxygenase (Photinus pyralis) (UniProt P08659)     class 0
2  N#CCN(C(=O)COC(=O)C1CC2CCCC(C1)C2=O)c1ccccc1 (centres undefined)  Luciferin 4-monooxygenase (Photinus pyralis) (UniProt P08659)     class 0
3  CC1CN(C(=S)SCC(=O)c2ccccc2)CC(C)O1 (centres undefined)  Luciferin 4-monooxygenase (Photinus pyralis) (UniProt P08659)     class 0
4         FC(F)(F)Oc1ccc(-c2cn3cccnc3n2)cc1  Luciferin 4-monooxygenase (Photinus pyralis) (UniProt P08659)     class 1

====

target: Luciferin 4-monooxygenase (Photinus pyralis) (UniProt P08659); test: qHTS profiling assay for firefly luciferase inhibitor/activator using purifed enzyme and Km concentrations of substrates (counterscreen for miR-21 project); settings: purified FLuc, luminescence inhibition; series mostly up to 57.5 µM; note: nearly all actives have a fitted effect of over 55% in size
Among all 360,000 compounds or so, about 25,000 (6.9%) were called active. About 9% were inconclusive and are not listed. The call rests on the fitted dose curve; in most records, active means well fitted inhibition curve with a large enough effect; inconclusive means small, poorly fitted or top-dose-only effect; inactive means flat fitted curve, though single readings scatter. The list comes from a sample in which actives are over-represented; it also holds close analogues and randomly drawn compounds.
Possible outcomes: Y for active, N for inactive

> print(dat)
                                    compound  class.name
 1  Cc1cccc(Oc2c([N+](=O)[O-])c(=O)n(C)c3ccccc23)c1           N
 2         CC(=O)c1sc(N/N=C\c2ccc(C)cc2)nc1C           Y
 3  CCCCCCC(=O)Nc1nc(C)c(-c2csc(Nc3cc(Cl)ccc3OC)n2)s1           N
 4  COc1ccccc1-c1nnc(NC(=O)c2cccc(N3C(=O)CCC3=O)c2)o1           Y
 5       C=CCSc1ccc(S(=O)(=O)N2CCN(C)CC2)cn1           N
 6  Cc1cc2c(=O)n(CC(=O)NCC(=O)Nc3ccc(C(C)C)cc3)cnc2s1           N
 7  Cc1c(/C=N\NC(=O)c2cc3ccccc3o2)c2ccccc2n1C           Y
 8    O=C(Nc1ccccc1)OCc1cn(-c2ccc(Cl)cc2)nn1           N
 9  Nc1c(C(=O)c2cccs2)sc2nsc(SCCN3CCCCC3)c12           Y
10  COc1ccc(C(C#N)Nc2ccccc2C)cc1 (configuration not stated)           N
11  COc1ccc(C(C#N)Nc2ccc(C)cc2)cc1 (configuration not stated)           Y
12  COc1ccccc1-c1nnc(SCC(=O)N2CC(C)CC(C)C2)o1 (configuration not stated)           N
13  COc1ccc(C(CC(=O)Nc2ccc(C)cc2)NC(=O)C(F)(F)F)cc1 (configuration not stated)           N
14  CCN(CC)S(=O)(=O)c1ccc(C(=O)N=c2sc3cccc(OC)c3n2C)cc1           N
15  O=C(Cc1ccccc1)Nc1cccc(C(=O)N/N=C/c2ccco2)c1           N
16      Cc1ccc(C(=O)Nc2nnc(C3=COCCO3)o2)cc1C           N
17  COC(=O)c1ccccc1NC(=O)c1cc(-c2ccccc2O)no1           N
18  O=C(c1cccs1)c1cn(CCOc2ccc(Cl)cc2)c2ccccc12           N
19  COc1cccc(-c2nnc(NC(=O)c3ccc(S(=O)(=O)N(CC(C)C)CC(C)C)cc3)o2)c1           N
20              O=C(Nc1cccc(Cl)c1)OCc1ccccn1           Y
21   COc1ccccc1-c1nnc(NC(=O)c2ccc3ncsc3c2)o1           Y
22  O=C(N/N=C/c1ccc([N+](=O)[O-])cc1)c1c[nH]c2ccccc12           N
23  CN(C)S(=O)(=O)c1cccc(NC(=S)N/N=C/C(=O)c2ccccc2)c1           N
24             Cc1ccc(Nc2ncnc3c2cnn3C)c(C)c1           N
25         Cn1c(=NC(=O)c2ccco2)sc2cccc(F)c21           Y
26  Cc1ccc(-n2ncc3c(Nc4cccc(C(=O)O)c4)ncnc32)cc1           Y
27  Cc1ccc(C)c2sc(NC(=O)c3ccc(S(=O)(=O)N4CCCC4)cc3)nc12           N
28  O=C(CC1SC(=Nc2ccccc2)N(Cc2ccccn2)C1=O)Nc1cccc(Cl)c1 (configuration not stated)           N
29  CCN(C(=O)CSc1ncnc2sccc12)c1c(N)n(Cc2ccccc2)c(=O)[nH]c1=O           N
30  CCOc1cc(CNC(=O)c2sc3ncnc(N(C)C4CCCCC4)c3c2C)ccc1OC           N
31    O=C(CN1C(=O)NC2(CCCCCC2)C1=O)NCc1cccs1           N
32           Cc1nnc(C)n1/N=C/c1ccc(C(C)C)cc1           N
